Reference source: patent US12162858B2

I'd appreciate it if you could supply IC50 values for the items below.
Tgt: Axl (Homo sapiens, UniProt P30530)
Sequence (P30530 26-894): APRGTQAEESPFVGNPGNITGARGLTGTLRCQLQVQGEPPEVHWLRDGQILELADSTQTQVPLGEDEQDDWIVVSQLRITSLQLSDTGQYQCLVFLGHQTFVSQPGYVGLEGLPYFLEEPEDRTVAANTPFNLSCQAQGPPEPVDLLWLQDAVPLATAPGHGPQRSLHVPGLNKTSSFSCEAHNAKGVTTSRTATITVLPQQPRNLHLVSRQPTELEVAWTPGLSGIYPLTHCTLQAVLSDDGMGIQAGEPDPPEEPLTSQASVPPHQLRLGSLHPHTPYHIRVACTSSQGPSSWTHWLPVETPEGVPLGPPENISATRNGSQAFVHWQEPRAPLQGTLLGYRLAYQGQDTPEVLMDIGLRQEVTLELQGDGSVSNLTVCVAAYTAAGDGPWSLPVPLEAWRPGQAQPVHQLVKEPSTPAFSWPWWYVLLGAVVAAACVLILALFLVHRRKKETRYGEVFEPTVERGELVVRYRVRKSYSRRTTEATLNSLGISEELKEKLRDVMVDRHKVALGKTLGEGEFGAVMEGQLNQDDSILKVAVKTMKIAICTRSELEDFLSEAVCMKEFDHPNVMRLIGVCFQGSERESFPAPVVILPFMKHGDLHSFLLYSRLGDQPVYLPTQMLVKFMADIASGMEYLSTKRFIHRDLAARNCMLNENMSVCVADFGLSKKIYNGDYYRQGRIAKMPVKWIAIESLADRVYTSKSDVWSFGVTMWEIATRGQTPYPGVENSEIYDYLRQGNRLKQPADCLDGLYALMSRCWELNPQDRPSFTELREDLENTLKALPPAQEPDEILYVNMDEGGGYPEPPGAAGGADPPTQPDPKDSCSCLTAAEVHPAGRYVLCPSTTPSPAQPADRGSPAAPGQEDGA
Assay Summary: Cellular Axl inhibition ELISA (p-Axl, Gas6-induced) using H1299 cells
Type: cell-based
Design: especially H1299 cell endogenously expresses Axl; endogenous in cells; host or cells: H1299
Reported Conditions: Elisa, comparison of compounds of present invention (**) vs compounds of WO2016/166250 (*), read-out: Cellular activity Axl (H1299) (IC50)
Report only the number, with the unit nM understood.

Lab entry: Axl (Homo sapiens, UniProt P30530) assay, compound COc1cc2nccc(Oc3ccc(NC(=O)c4nn(CC5COC5)cc4OCC(F)(F)F)nc3)c2cc1OC , IC50 = 3.9

Lab entry: Axl (Homo sapiens, UniProt P30530) assay, compound COc1cc2nccc(Oc3ccc(NC(=O)c4n[nH]cc4OCC(F)(F)F)nc3)c2cc1OC , IC50 = 44

Lab entry: Axl (Homo sapiens, UniProt P30530) assay, compound CCn1cc(OCC(F)(F)F)c(C(=O)Nc2ccc(Oc3ccnc4cc(OC)c(OC)cc34)cn2)n1 , IC50 = 3.4

Lab entry: Axl (Homo sapiens, UniProt P30530) assay, compound COCCn1cc(OCC(F)(F)F)c(C(=O)Nc2ccc(Oc3ccnc4cc(OC)c(OC)cc34)cn2)n1 , IC50 = 5.2

###

Tgt: Axl (Homo sapiens, UniProt P30530)
Assay Summary: LanthaScreen Eu kinase binding assay for Axl
Reported Conditions: read-out: Axl kinase binding activity (Kd)
I'd appreciate it if you could supply Kd values for the items below.

Kd reported for this compound COc1cc2nccc(Oc3ccc(NC(=O)c4nn(C5CCOCC5)cc4OCC(F)(F)F)nc3)c2cc1OC : < 100 nM

Kd reported for this compound COc1cc2nccc(Oc3ccc(NC(=O)c4nn(CC5COC5)cc4OCC(F)(F)F)nn3)c2cc1OC : < 100 nM

Kd reported for this compound CCCn1cc(OCC2CNC2)c(C(=O)Nc2ccc(Oc3ccnc4cc(OC)c(OC)cc34)cn2)n1 : ≥ 500 nM

Kd reported for this compound CCn1cc(OC(C)C)c(C(=O)Nc2ccc(Oc3ccnc4cc(OC)c(OC)cc34)cn2)n1 : < 100 nM

###

I'd appreciate it if you could supply pIC50 values for the items below.
Tgt: Axl (Homo sapiens, UniProt P30530)
Assay Summary: Cellular Axl inhibition ELISA (p-Axl, Gas6-induced) using H1299 cells
Type: cell-based
Parameters: especially H1299 cell endogenously expresses Axl; endogenous in cells; host or cells: H1299
Reported Conditions: read-out: Cellular Axl activity by H1299 Elisa (IC50)
pIC50: −log10 of the molar value.

pIC50 reported for this molecule COc1cc2nccc(Oc3ccc(NC(=O)c4nn(C5CCN(C)C5)cc4OCC(F)(F)F)cc3F)c2cc1OC (stereo not drawn) : > 6.30

pIC50 reported for this molecule COc1cc2nccc(Oc3ccc(NC(=O)c4nn(C)cc4OCC(F)(F)F)cc3F)c2cc1OC : > 6.30

pIC50 reported for this molecule COc1cc2nccc(Oc3ccc(NC(=O)c4nn(CCN)cc4OCC(F)(F)F)nn3)c2cc1OC : ≤ 6.00

pIC50 reported for this molecule COc1cc2nccc(Oc3ccc(NC(=O)c4nn(CCC(F)(F)F)cc4OCC4CCC4)nc3)c2cc1OC : > 6.30

pIC50 reported for this molecule COc1cc2nccc(Oc3ccc(NC(=O)c4nn(CCOC5CC5)cc4OCC(F)(F)F)nc3)c2cc1OC : > 6.30

pIC50 reported for this molecule COc1cc2nccc(Oc3ccc(NC(=O)c4nn(C5CC5)cc4OCC4CNC4)nn3)c2cc1OC : ≤ 6.00

pIC50 reported for this molecule COc1cc2nccc(Oc3ccc(NC(=O)c4nn(CCC#N)cc4OCC(F)(F)F)nc3)c2cc1OC : > 6.30

pIC50 reported for this molecule COc1cc2nccc(Oc3ccc(NC(=O)c4nn(CCOC5CC5)cc4OCC(F)(F)F)cc3)c2cc1OC : > 6.30

pIC50 reported for this molecule COc1cc2nccc(Oc3ccc(NC(=O)c4nn(CCO)cc4OCC(F)(F)F)cn3)c2cc1OC : ≤ 6.00

pIC50 reported for this molecule COc1cc2nccc(Oc3ccc(NC(=O)c4nn(CC(C)O)cc4OCC4CCC4)nc3)c2cc1OC (stereo not drawn) : > 6.30

pIC50 reported for this molecule COc1cc2nccc(Oc3ccc(NC(=O)c4nn(CC5CC5)cc4OCC(F)(F)F)nc3)c2cc1OC : > 6.30

pIC50 reported for this molecule COc1cc2nccc(Oc3ccc(NC(=O)c4nn(C5CC5)cc4OCC(F)(F)F)nn3)c2cc1OC : > 6.30

pIC50 reported for this molecule COc1cc2nccc(Oc3ccc(NC(=O)c4nn(C5CCCC5)cc4OCC(F)(F)F)cc3C)c2cc1OC : > 6.30

pIC50 reported for this molecule CCCn1cc(OCC2COC2)c(C(=O)Nc2ccc(Oc3ccnc4cc(OC)c(OC)cc34)cn2)n1 : > 6.30

pIC50 reported for this molecule COc1cc2nccc(Oc3ccc(NC(=O)c4nn(CC(C)C)cc4OCC(F)(F)F)nn3)c2cc1OC : > 6.30

pIC50 reported for this molecule COc1cc2nccc(Oc3ccc(NC(=O)c4nn(CC5COC5)cc4OCC(F)(F)F)nn3)c2cc1OC : > 6.30

pIC50 reported for this molecule COc1cc2nccc(Oc3ccc(NC(=O)c4nn(CCOC5CC5)cc4OCC(F)(F)F)nn3)c2cc1OC : 6.00 to 6.30

pIC50 reported for this molecule COc1cc2nccc(Oc3ccc(NC(=O)c4nn(CC5CCOC5)cc4OCC(F)(F)F)nc3)c2cc1OC (stereo not drawn) : > 6.30

pIC50 reported for this molecule COc1cc2nccc(Oc3ccc(NC(=O)c4nn(C5CCN(C)C5)cc4OCC(F)(F)F)nn3)c2cc1OC (stereo not drawn) : ≤ 6.00

pIC50 reported for this molecule COc1cc2nccc(Oc3ccc(NC(=O)c4nn(CCN)cc4OCC(F)(F)F)cc3F)c2cc1OC : > 6.30

pIC50 reported for this molecule COc1cc2nccc(Oc3ccc(NC(=O)c4nn(C5CC5)cc4OCCC(F)(F)F)nc3)c2cc1OC : > 6.30

pIC50 reported for this molecule COCCOc1cn(CC(C)O)nc1C(=O)Nc1ccc(Oc2ccnc3cc(OC)c(OC)cc23)cn1 (stereo not drawn) : > 6.30

pIC50 reported for this molecule COc1cc2nccc(Oc3ccc(NC(=O)c4nn(C5CC5)cc4NCC(F)(F)F)nn3)c2cc1OC : > 6.30

pIC50 reported for this molecule COc1cc2nccc(Oc3ccc(NC(=O)c4nn(C5CCNC5)cc4OCC(F)(F)F)nn3)c2cc1OC (stereo not drawn) : ≤ 6.00

pIC50 reported for this molecule COc1cc2nccc(Oc3ccc(NC(=O)c4nn(CCOC5CC5)cc4OCC(F)(F)F)cc3F)c2cc1OC : > 6.30

pIC50 reported for this molecule COc1cc2nccc(Oc3ccc(NC(=O)c4nn(C[C@@H](C)O)cc4OCC(F)(F)F)nc3)c2cc1OC : > 6.30

pIC50 reported for this molecule CNCCOc1cn(C2CC2)nc1C(=O)Nc1ccc(Oc2ccnc3cc(OC)c(OC)cc23)cn1 : ≤ 6.00

pIC50 reported for this molecule COc1cc2nccc(Oc3ccc(NC(=O)c4nn(C5CCN(C)C5)cc4OCC(F)(F)F)c(F)c3)c2cc1OC (stereo not drawn) : > 6.30

pIC50 reported for this molecule COc1cc2nccc(Oc3ccc(NC(=O)c4nn(CCCO)cc4OCC(F)(F)F)nc3)c2cc1OC : > 6.30

pIC50 reported for this molecule COc1cc2nccc(Oc3ccc(NC(=O)c4nn(CCN)cc4OCC(F)(F)F)cc3)c2cc1OC : 6.00 to 6.30

###

Tgt: CSF1R (Homo sapiens)
Sequence (P07333 20-972): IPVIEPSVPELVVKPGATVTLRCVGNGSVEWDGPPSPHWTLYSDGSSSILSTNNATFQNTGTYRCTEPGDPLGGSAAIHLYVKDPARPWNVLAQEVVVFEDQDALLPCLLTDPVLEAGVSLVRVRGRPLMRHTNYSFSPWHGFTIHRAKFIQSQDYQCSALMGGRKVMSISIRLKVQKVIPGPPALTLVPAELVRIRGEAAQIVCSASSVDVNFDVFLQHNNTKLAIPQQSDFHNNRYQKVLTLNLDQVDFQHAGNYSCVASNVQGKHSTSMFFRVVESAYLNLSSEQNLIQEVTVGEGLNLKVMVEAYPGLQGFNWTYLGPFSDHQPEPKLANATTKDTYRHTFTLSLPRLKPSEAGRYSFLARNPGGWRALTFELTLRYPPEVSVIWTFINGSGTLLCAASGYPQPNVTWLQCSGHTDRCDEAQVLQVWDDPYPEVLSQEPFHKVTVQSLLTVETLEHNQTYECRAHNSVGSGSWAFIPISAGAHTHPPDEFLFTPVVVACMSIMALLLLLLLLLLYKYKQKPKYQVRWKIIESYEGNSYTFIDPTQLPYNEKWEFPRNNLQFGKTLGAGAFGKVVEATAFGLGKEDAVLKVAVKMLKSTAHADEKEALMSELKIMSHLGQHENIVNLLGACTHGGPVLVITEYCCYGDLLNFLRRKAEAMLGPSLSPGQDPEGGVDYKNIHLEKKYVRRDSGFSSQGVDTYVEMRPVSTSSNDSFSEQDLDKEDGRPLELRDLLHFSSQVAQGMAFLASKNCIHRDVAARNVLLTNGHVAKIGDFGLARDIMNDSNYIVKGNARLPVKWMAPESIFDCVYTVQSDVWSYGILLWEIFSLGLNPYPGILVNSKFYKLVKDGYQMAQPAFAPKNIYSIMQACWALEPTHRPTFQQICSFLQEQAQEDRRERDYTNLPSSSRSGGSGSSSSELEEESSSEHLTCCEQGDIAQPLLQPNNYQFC
Assay Summary: Cellular CSF1R inhibition ELISA (p-CSF1R, M-CSF-induced) using THP-1 cells
Measured Parameter: IC50

IC50 reported for this molecule COc1cc2nccc(Oc3ccc(NC(=O)c4nn(CC5COC5)cc4OCC(F)(F)F)cc3F)c2cc1OC : ≥ 1000 nM

IC50 reported for this molecule COc1cc2nccc(Oc3ccc(NC(=O)c4nn(CC(C)O)cc4OCC(F)(F)F)c(F)c3)c2cc1OC (stereo not shown) : ≥ 1000 nM

IC50 reported for this molecule COc1cc2nccc(Oc3ccc(NC(=O)c4nn(C5CCN(C)C5)cc4OCC(F)(F)F)nn3)c2cc1OC (stereo not shown) : 500 to 1000 nM

IC50 reported for this molecule CCCn1cc(N(C)CC2CCOCC2)c(C(=O)Nc2ccc(Oc3ccnc4cc(OC)c(OC)cc34)cn2)n1 : ≥ 1000 nM

IC50 reported for this molecule CCCn1cc(OCCN(C)C)c(C(=O)Nc2ccc(Oc3ccnc4cc(OC)c(OC)cc34)cn2)n1 : ≥ 1000 nM

IC50 reported for this molecule COc1cc2nccc(Oc3ccc(NC(=O)c4nn(C5CCOC5)cc4OCC(F)(F)F)cc3C)c2cc1OC (stereo not shown) : 500 to 1000 nM

IC50 reported for this molecule COCCn1cc(OCC(F)(F)F)c(C(=O)Nc2ccc(Oc3ccnc4cc(OC)c(OC)cc34)c(F)c2)n1 : ≥ 1000 nM
